Molecular target: T1, GFP-9S library array, motif 4 ND N98G;D124P (synthetic construct, N98G;D124P)
T1 chain: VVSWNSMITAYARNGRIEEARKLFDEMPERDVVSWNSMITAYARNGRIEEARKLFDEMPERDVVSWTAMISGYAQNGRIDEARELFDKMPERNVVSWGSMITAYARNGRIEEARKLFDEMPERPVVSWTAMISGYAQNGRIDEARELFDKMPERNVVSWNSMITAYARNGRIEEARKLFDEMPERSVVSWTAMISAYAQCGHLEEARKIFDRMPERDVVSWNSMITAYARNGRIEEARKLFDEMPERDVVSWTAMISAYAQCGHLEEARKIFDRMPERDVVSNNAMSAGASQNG
Assay: high-throughput RNA pulldown from lysate on Ni-NTA beads; HRP: 50 mM Tris pH 8, 150 mM NaCl, 1 mM beta-mercaptoethanol, 50 ug/ml BSA, 3 ug/ml yeast RNA, 0.5% heparin; ITC and FP: Tris pH 8, 200 mM KCl, 5% glycerol; MST: 50 mM Tris pH 8, 200 mM NaCl, 1 mM DTT, BSA, heparin, 0.05% Tween 20
Conditions: tags: N-terminal His-eGFP; label: 5' Cy5
Reported Kd is given for each of the following binders.
Quick note: give the figure in nM, leave out the unit.

- AUUACACGUGA (ssRNA) [Cy5-rpoA]: 85.9

Below: the item to evaluate.
What does the record list as Kd for AUUAGACGUGA (ssRNA) [Cy5-rpoA-G] ?
127

Data origin, for the record: paper PMC8809517
